B1: library; a variant is named by its letters at N, in order (parent)
chain: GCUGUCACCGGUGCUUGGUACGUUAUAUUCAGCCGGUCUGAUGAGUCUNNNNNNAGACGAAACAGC

Variants of: B1
Assay: normalized RNA/DNA level with ligand (relative to sTRSVctl = 100) (log10 (% of sTRSVctl)); HEK293T overexpressing SLC46A1; ligand concentration (+) RNA-Seq: 6 mM; higher = less ribozyme self-cleavage, higher mRNA level
Conditions: with (6R,S)-folinic acid; ligand present: yes
This listing pairs variants with measured normalized RNA/DNA level with ligand (log10).
assay-endpoint: normalized RNA/DNA level with ligand (log10)

sequence-change	quantitative-result
GUACGA	2.04
UACUAG	1.99
GGGGCC	2.05
GUAUAC	2.02
AUUGUC	2.05
AGACAU	2.02
AGAACU	2.07
AUGAUA	2
CUUAAC	1.98
AUACUA	1.99
GACAGC	2.03
